Species: Rattus norvegicus
method.summary: Inhibition of testoterone-induced prostate weight in castrated immature Sprague-Dawley rat
Format: functional, Prostate gland
Overview of reported ID50 across a group of compounds:
Be sure to follow the number with its unit.

Answered cases to consult:
INSERT INTO assay_data (compound, measurement) VALUES
  ('FC(F)(F)Cc1nc2cc(Cl)c(Cl)cc2n1Cc1ccc(Br)cc1', '0.13 mg/day'),
  ('FC(F)(F)Cc1nc2cc(Cl)c(Cl)cc2n1Cc1ccccc1Cl', '0.26 mg/day'),
  ('FC(F)(F)Cc1nc2cc(Cl)c(Cl)cc2n1Cc1ccccc1-c1ccccn1', '0.4 mg/day'),
  ('FC(F)(F)Cc1nc2cc(Cl)c(Cl)cc2n1Cc1ccccc1Br', '0.38 mg/day'),
  ('O=[N+]([O-])c1ccccc1Cn1c(CC(F)(F)F)nc2cc(Cl)c(Cl)cc21', '0.95 mg/day');

Query: Dear colleague, I am looking for the recorded ID50 of the following compound: Fc1ccc(Cn2c(CC(F)(F)F)nc3cc(Cl)c(Cl)cc32)cc1
Response: 0.19 mg/day

Query: Dear colleague, I am looking for the recorded ID50 of the following compound: O=C(Cn1c(CC(F)(F)F)nc2cc(Cl)c(Cl)cc21)c1ccccn1
Response: 0.47 mg/day
